System: PBMC from HCV-infected patients
testSummary: CTL recall: recognition in vitro by PBMC from HCV-infected patients, 51Cr release
Type: cell-based, human
experimentalConditions: A3-supertype binders; positive responses over total number of patients examined
# Immunogenicity Human, Barnaba; patients per entry
reportedEndpoint: Immunogenicity Human, Barnaba; patients

compound	reportedEndpoint	assayResult
CC(C)C[C@H](NC(=O)[C@H](C)NC(=O)CNC(=O)[C@H](C)NC(=O)[C@@H](NC(=O)CN)C(C)C)C(=O)N[C@H](C(=O)N[C@@H](C)C(=O)N[C@@H](Cc1ccccc1)C(=O)N[C@@H](CCCCN)C(=O)O)C(C)C [Peptide 1073.10]	Immunogenicity Human, Barnaba; patients	3/16
CSCC[C@H](NC(=O)[C@@H](N)CCCNC(=N)N)C(=O)N[C@@H](Cc1ccc(O)cc1)C(=O)N[C@H](C(=O)NCC(=O)NCC(=O)N[C@H](C(=O)N[C@@H](CCC(=O)O)C(=O)N[C@@H](Cc1c[nH]cn1)C(=O)N[C@@H](CCCNC(=N)N)C(=O)O)C(C)C)C(C)C [Peptide 1073.13]	Immunogenicity Human, Barnaba; patients	5/16
CC(C)C[C@H](NC(=O)[C@H](C)NC(=O)CNC(=O)[C@H](C)NC(=O)[C@@H](N)C(C)C)C(=O)N[C@H](C(=O)N[C@@H](C)C(=O)N[C@@H](Cc1ccccc1)C(=O)N[C@@H](CCCCN)C(=O)O)C(C)C [Peptide 24.0090]	Immunogenicity Human, Barnaba; patients	4/16
CC[C@H](C)[C@H](NC(=O)[C@@H](N)CC(C)C)C(=O)N[C@@H](Cc1ccccc1)C(=O)N[C@@H](CS)C(=O)N[C@@H](Cc1c[nH]cn1)C(=O)N[C@@H](CO)C(=O)N[C@@H](CCCCN)C(=O)N[C@@H](CCCCN)C(=O)N[C@@H](CCCCN)C(=O)O [Peptide 1.0123]	Immunogenicity Human, Barnaba; patients	6/16
CC(C)C[C@H](NC(=O)[C@@H](N)CCCNC(=N)N)C(=O)NCC(=O)N[C@H](C(=O)N[C@@H](CCCNC(=N)N)C(=O)N[C@@H](C)C(=O)N[C@H](C(=O)N[C@@H](CCCNC(=N)N)C(=O)N[C@@H](CCCCN)C(=O)O)[C@@H](C)O)C(C)C [Peptide 1073.11]	Immunogenicity Human, Barnaba; patients	4/16
C[C@@H](O)[C@H](NC(=O)[C@@H](N)CCCCN)C(=O)N[C@@H](CO)C(=O)N[C@@H](CCC(=O)O)C(=O)N[C@@H](CCCNC(=N)N)C(=O)N[C@@H](CO)C(=O)N[C@@H](CCC(N)=O)C(=O)N1CCC[C@H]1C(=O)N[C@@H](CCCNC(=N)N)C(=O)O [Peptide 1.0952]	Immunogenicity Human, Barnaba; patients	2/16
CC(C)C[C@H](NC(=O)[C@@H](N)CCC(N)=O)C(=O)N[C@@H](Cc1ccccc1)C(=O)N[C@H](C(=O)N[C@@H](Cc1ccccc1)C(=O)N[C@@H](CO)C(=O)N1CCC[C@H]1C(=O)N[C@@H](CCCNC(=N)N)C(=O)N[C@@H](CCCNC(=N)N)C(=O)O)[C@@H](C)O [Peptide 1.0955]	Immunogenicity Human, Barnaba; patients	1/16
